# Test system: E. coli (ATCC 25922)
# EXPERIMENT NOTES: In vitro anti-E. coli CFU assay
# Format: cell-based, Escherichia coli
# MEASUREMENT CONDITIONS: peptide 0.064 mg/mL + ZnCl2 (0.9:1), 24 h, pH 5.4; per 0.1 mL
Residues, ends and D or L forms follow the SMILES beside them.
OBSERVATION TYPE: mean CFU number ± S.D. (CFU)
The reply should be a number in CFU, with the unit left off.

Per the records, this compound ( CC[C@H](C)[C@H](NC(=O)[C@H](C)NC(=O)[C@@H](NC(C)=O)C(C)C)C(=O)N[C@@H](C)C(=O)N[C@@H](CC(C)C)C(=O)N[C@@H](CCCCN)C(=O)N[C@@H](C)C(=O)N[C@@H](C)C(=O)N[C@@H](Cc1c[nH]cn1)C(=O)N[C@@H](Cc1ccc(O)cc1)C(=O)N[C@@H](Cc1c[nH]cn1)C(=O)N[C@H](C(=O)N[C@@H](Cc1c[nH]cn1)C(=O)N[C@@H](CCCCN)C(=O)N[C@@H](CCC(=O)O)C(=O)O)[C@@H](C)O [L1, Ac-VAIALKAAHYHTHKE] (Ac-VAIALKAAHYHTHKE-OH) ) has mean CFU number ± S.D. equal to 149

----------
# EXPERIMENT NOTES: in vitro
# MEASUREMENT CONDITIONS: human, pH 7.4
Residues, ends and D or L forms follow the SMILES beside them.
OBSERVATION TYPE: half-life (h)
The reply should be a number in h, with the unit left off.

Per the records, this molecule ( CC[C@H](C)[C@H](NC(=O)[C@H](C)NC(=O)[C@@H](NC(C)=O)C(C)C)C(=O)N[C@@H](C)C(=O)N[C@@H](CC(C)C)C(=O)N[C@@H](CCCCN)C(=O)N[C@@H](C)C(=O)N[C@@H](C)C(=O)N[C@@H](Cc1c[nH]cn1)C(=O)N[C@@H](Cc1ccc(O)cc1)C(=O)N[C@@H](Cc1c[nH]cn1)C(=O)N[C@H](C(=O)N[C@@H](Cc1c[nH]cn1)C(=O)N[C@@H](CCCCN)C(=O)N[C@@H](CCC(=O)O)C(=O)O)[C@@H](C)O [L1, Ac-VAIALKAAHYHTHKE] (Ac-VAIALKAAHYHTHKE-OH) ) has half-life equal to 2.25

----------
Examples of compounds with documented mean CFU number ± S.D. follow.
# Test system: E. coli (ATCC 25922)
# EXPERIMENT NOTES: In vitro anti-E. coli CFU assay
# Format: cell-based, Escherichia coli
# MEASUREMENT CONDITIONS: peptide 0.032 mg/mL + ZnCl2 (0.9:1), 3 h, pH 5.4; per 0.1 mL
Residues, ends and D or L forms follow the SMILES beside them.
State the value with its unit after it.

Solved cases (3 shown):
COMPOUND | mean CFU number ± S.D.
CC[C@H](C)[C@H](NC(=O)[C@H](C)NC(=O)[C@@H](NC(C)=O)C(C)C)C(=O)N[C@@H](C)C(=O)N[C@@H](CC(C)C)C(=O)N[C@@H](CCCCN)C(=O)N[C@@H](C)C(=O)N[C@@H](C)C(=O)N[C@@H](Cc1c[nH]cn1)C(=O)N[C@@H](Cc1ccc(O)cc1)C(=O)N[C@@H](Cc1c[nH]cn1)C(=O)N[C@H](C(=O)N[C@@H](Cc1c[nH]cn1)C(=O)N[C@@H](CCCCN)C(=O)N[C@@H](CCC(=O)O)C(=O)O)[C@@H](C)O [L1, Ac-VAIALKAAHYHTHKE] (Ac-VAIALKAAHYHTHKE-OH) | 343 ± 13 CFU
CC[C@H](C)[C@H](NC(=O)[C@H](C)NC(=O)[C@@H](NC(C)=O)C(C)C)C(=O)N[C@@H](C)C(=O)N[C@@H](CC(C)C)C(=O)N[C@@H](CCCCN)C(=O)N[C@@H](C)C(=O)N[C@@H](C)C(=O)N[C@@H](Cc1c[nH]cn1)C(=O)N[C@@H](Cc1ccc(O)cc1)C(=O)N[C@@H](Cc1c[nH]cn1)C(=O)N[C@H](C(=O)N[C@@H](Cc1c[nH]cn1)C(=O)N[C@@H](CCCCN)C(=O)N[C@@H](CCC(=O)O)C(N)=O)[C@@H](C)O [L2, Ac-VAIALKAAHYHTHKE-NH2] (Ac-VAIALKAAHYHTHKE-NH2) | 378 ± 8 CFU
CC[C@H](C)[C@H](NC(=O)[C@H](C)NC(=O)[C@@H](N)C(C)C)C(=O)N[C@@H](C)C(=O)N[C@@H](CC(C)C)C(=O)N[C@@H](CCCCN)C(=O)N[C@@H](C)C(=O)N[C@@H](C)C(=O)N[C@@H](Cc1c[nH]cn1)C(=O)N[C@@H](Cc1ccc(O)cc1)C(=O)N[C@@H](Cc1c[nH]cn1)C(=O)N[C@H](C(=O)N[C@@H](Cc1c[nH]cn1)C(=O)N[C@@H](CCCCN)C(=O)N[C@@H](CCC(=O)O)C(N)=O)[C@@H](C)O [L3, VAIALKAAHYHTHKE-NH2] (H-VAIALKAAHYHTHKE-NH2) | 439 ± 91 CFU

Per the records, this compound ( CC[C@H](C)[C@H](NC(=O)[C@H](C)NC(=O)[C@@H](N)C(C)C)C(=O)N[C@@H](C)C(=O)N[C@@H](CC(C)C)C(=O)N[C@@H](CCCCN)C(=O)N[C@@H](C)C(=O)N[C@@H](C)C(=O)N[C@@H](Cc1c[nH]cn1)C(=O)N[C@@H](Cc1ccc(O)cc1)C(=O)N[C@@H](Cc1c[nH]cn1)C(=O)N[C@H](C(=O)N[C@@H](Cc1c[nH]cn1)C(=O)N[C@@H](CCCCN)C(=O)N[C@@H](CCC(=O)O)C(=O)O)[C@@H](C)O [WT, VAIALKAAHYHTHKE, reference compound] (H-VAIALKAAHYHTHKE-OH) ) has mean CFU number ± S.D. equal to 499 ± 104 CFU

----------
# System: S. aureus (ATCC 25293)
# EXPERIMENT NOTES: In vitro anti-S. aureus CFU assay
# Assay type: cell-based, Staphylococcus aureus
# MEASUREMENT CONDITIONS: peptide 0.032 mg/mL + ZnCl2 (0.9:1), 3 h, pH 5.4; per 0.1 mL
Residues, ends and D or L forms follow the SMILES beside them.
OBSERVATION TYPE: mean CFU number ± S.D. (CFU)
The reply should be a number in CFU, with the unit left off.

Per the records, this compound ( CC[C@H](C)[C@H](NC(=O)[C@H](C)NC(=O)[C@@H](N)C(C)C)C(=O)N[C@@H](C)C(=O)N[C@@H](CC(C)C)C(=O)N[C@@H](CCCCN)C(=O)N[C@@H](C)C(=O)N[C@@H](C)C(=O)N[C@@H](Cc1c[nH]cn1)C(=O)N[C@@H](Cc1ccc(O)cc1)C(=O)N[C@@H](Cc1c[nH]cn1)C(=O)N[C@H](C(=O)N[C@@H](Cc1c[nH]cn1)C(=O)N[C@@H](CCCCN)C(=O)N[C@@H](CCC(=O)O)C(N)=O)[C@@H](C)O [L3, VAIALKAAHYHTHKE-NH2] (H-VAIALKAAHYHTHKE-NH2) ) has mean CFU number ± S.D. equal to 167

----------
# Test system: C. albicans (ATCC 10231)
# EXPERIMENT NOTES: In vitro antifungal CFU assay
# Type: cell-based, Candida albicans
# MEASUREMENT CONDITIONS: peptide 0.128 mg/mL + CuCl2 (0.9:1), 24 h, pH 5.4; per 0.1 mL
Residues, ends and D or L forms follow the SMILES beside them.
OBSERVATION TYPE: mean CFU number ± S.D.

Solved cases (2 shown):
COMPOUND | EXPERIMENTAL RESULT
CC[C@H](C)[C@H](NC(=O)[C@H](C)NC(=O)[C@@H](NC(C)=O)C(C)C)C(=O)N[C@@H](C)C(=O)N[C@@H](CC(C)C)C(=O)N[C@@H](CCCCN)C(=O)N[C@@H](C)C(=O)N[C@@H](C)C(=O)N[C@@H](Cc1c[nH]cn1)C(=O)N[C@@H](Cc1ccc(O)cc1)C(=O)N[C@@H](Cc1c[nH]cn1)C(=O)N[C@H](C(=O)N[C@@H](Cc1c[nH]cn1)C(=O)N[C@@H](CCCCN)C(=O)N[C@@H](CCC(=O)O)C(=O)O)[C@@H](C)O [L1, Ac-VAIALKAAHYHTHKE] (Ac-VAIALKAAHYHTHKE-OH) | 1,428 ± 24 CFU
CC[C@H](C)[C@H](NC(=O)[C@H](C)NC(=O)[C@@H](NC(C)=O)C(C)C)C(=O)N[C@@H](C)C(=O)N[C@@H](CC(C)C)C(=O)N[C@@H](CCCCN)C(=O)N[C@@H](C)C(=O)N[C@@H](C)C(=O)N[C@@H](Cc1c[nH]cn1)C(=O)N[C@@H](Cc1ccc(O)cc1)C(=O)N[C@@H](Cc1c[nH]cn1)C(=O)N[C@H](C(=O)N[C@@H](Cc1c[nH]cn1)C(=O)N[C@@H](CCCCN)C(=O)N[C@@H](CCC(=O)O)C(N)=O)[C@@H](C)O [L2, Ac-VAIALKAAHYHTHKE-NH2] (Ac-VAIALKAAHYHTHKE-NH2) | 1,256 ± 129 CFU

Consider now this further compound.
Per the records, this compound ( CC[C@H](C)[C@H](NC(=O)[C@H](C)NC(=O)[C@@H](N)C(C)C)C(=O)N[C@@H](C)C(=O)N[C@@H](CC(C)C)C(=O)N[C@@H](CCCCN)C(=O)N[C@@H](C)C(=O)N[C@@H](C)C(=O)N[C@@H](Cc1c[nH]cn1)C(=O)N[C@@H](Cc1ccc(O)cc1)C(=O)N[C@@H](Cc1c[nH]cn1)C(=O)N[C@H](C(=O)N[C@@H](Cc1c[nH]cn1)C(=O)N[C@@H](CCCCN)C(=O)N[C@@H](CCC(=O)O)C(N)=O)[C@@H](C)O [L3, VAIALKAAHYHTHKE-NH2] (H-VAIALKAAHYHTHKE-NH2) ) has mean CFU number ± S.D. equal to 1,687 ± 111 CFU
